Tested on: HRP (horseradish peroxidase)
measurement_notes: Drug metabolism in sorensen buffer assessed as apparent Km for drug oxidation measured for 20 mins by Michaelis-Menten equation analysis in presence of HRP and H2O2
Format: physicochemical
experimental_parameters: horseradish peroxidase (HRP) with H2O2 in Sorensen buffer
parameter_measured: Km at 20 min (mM)
Answers are plain numbers, in mM.

Query string: Respond only with Km at 20 min recorded for CNCCCN1c2ccccc2CCc2ccccc21.Cl [DESIPRAMINE HYDROCHLORIDE]
Result string: 4.4
